- Assay details: Metabolic stability in human liver microsomes assessed as half life by microsome assay
- Assay type: ADME
Property label: half-life (h)
The response must be a number in h with no trailing unit.

So, NS(=O)(=O)c1ccc(-c2n[nH]c3cc(F)ccc23)cc1 ? Its half-life was 1.9
